# Target or test system: ErbB-3 receptor-Ig fusion (homodimer) (human, UniProt P21860 20-643; P21860 20-636)
# Sequence (P21860 other isoform, or with tags, fused parts or gaps): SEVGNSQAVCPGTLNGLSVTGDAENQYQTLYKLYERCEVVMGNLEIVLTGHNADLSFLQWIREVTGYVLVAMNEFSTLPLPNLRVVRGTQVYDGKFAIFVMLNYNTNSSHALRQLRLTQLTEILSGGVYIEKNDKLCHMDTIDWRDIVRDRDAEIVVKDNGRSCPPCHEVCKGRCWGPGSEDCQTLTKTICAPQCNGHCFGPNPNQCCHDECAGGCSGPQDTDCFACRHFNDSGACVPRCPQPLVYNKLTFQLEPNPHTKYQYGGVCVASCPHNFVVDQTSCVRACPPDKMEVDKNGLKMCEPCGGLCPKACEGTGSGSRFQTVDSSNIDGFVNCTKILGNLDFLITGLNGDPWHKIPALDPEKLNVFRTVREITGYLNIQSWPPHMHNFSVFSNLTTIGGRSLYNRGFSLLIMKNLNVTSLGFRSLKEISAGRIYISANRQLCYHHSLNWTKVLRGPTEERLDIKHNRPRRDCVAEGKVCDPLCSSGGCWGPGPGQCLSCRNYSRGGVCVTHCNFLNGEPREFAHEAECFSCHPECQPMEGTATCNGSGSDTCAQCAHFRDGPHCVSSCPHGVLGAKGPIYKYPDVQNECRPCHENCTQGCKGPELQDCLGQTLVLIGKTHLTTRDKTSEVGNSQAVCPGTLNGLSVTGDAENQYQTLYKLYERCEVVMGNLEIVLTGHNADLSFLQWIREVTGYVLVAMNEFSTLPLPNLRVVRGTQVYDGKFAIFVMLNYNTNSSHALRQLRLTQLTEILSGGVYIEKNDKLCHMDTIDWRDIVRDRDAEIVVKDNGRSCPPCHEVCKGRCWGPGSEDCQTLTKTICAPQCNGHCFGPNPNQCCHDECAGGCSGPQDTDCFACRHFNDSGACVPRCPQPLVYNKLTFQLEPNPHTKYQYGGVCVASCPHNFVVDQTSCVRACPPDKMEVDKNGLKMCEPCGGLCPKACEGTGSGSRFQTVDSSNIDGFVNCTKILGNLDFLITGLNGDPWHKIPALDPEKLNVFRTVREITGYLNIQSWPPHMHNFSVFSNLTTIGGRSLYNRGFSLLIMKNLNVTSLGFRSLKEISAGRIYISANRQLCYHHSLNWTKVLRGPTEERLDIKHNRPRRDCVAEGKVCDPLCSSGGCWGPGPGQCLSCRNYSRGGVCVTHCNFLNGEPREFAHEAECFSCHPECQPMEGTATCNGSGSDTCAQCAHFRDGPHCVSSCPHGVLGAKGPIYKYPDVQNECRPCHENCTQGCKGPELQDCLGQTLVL
# Test details: displacement of 125I-HRG-β1 177-244 from plate-bound ErbB-3-Ig
Readout type: pEC50
Scale: pEC50 equals -log10([C]), with [C] in mol/L.

* Trx-HRG-β1 146-244 N192A fusion (soluble) (ligand) AYVSSESPIRISVSTEGANTSSSTSTSTTGTSHLVKCAEKEKTFCVAGGECFMVKDLSNPSRYLCKCPNEFTGDRCQNYVMASFYKHLGIEFMEAEELY | 5.78
* Trx-HRG-β1 146-244 K200A fusion (soluble) (ligand) AYVSSESPIRISVSTEGANTSSSTSTSTTGTSHLVKCAEKEKTFCVNGGECFMVADLSNPSRYLCKCPNEFTGDRCQNYVMASFYKHLGIEFMEAEELY | 7.34
* Trx-HRG-β1 146-244 L179A fusion (soluble) (ligand) AYVSSESPIRISVSTEGANTSSSTSTSTTGTSHAVKCAEKEKTFCVNGGECFMVKDLSNPSRYLCKCPNEFTGDRCQNYVMASFYKHLGIEFMEAEELY | 6.40
* Trx-HRG-β1 146-244 S177A fusion (soluble) (ligand) AYVSSESPIRISVSTEGANTSSSTSTSTTGTAHLVKCAEKEKTFCVNGGECFMVKDLSNPSRYLCKCPNEFTGDRCQNYVMASFYKHLGIEFMEAEELY | 6.89
* Trx-HRG-β1 146-244 T217A fusion (soluble) (ligand) AYVSSESPIRISVSTEGANTSSSTSTSTTGTSHLVKCAEKEKTFCVNGGECFMVKDLSNPSRYLCKCPNEFAGDRCQNYVMASFYKHLGIEFMEAEELY | 6.84
* Trx-HRG-β1 146-244 F189A fusion (soluble) (ligand) AYVSSESPIRISVSTEGANTSSSTSTSTTGTSHLVKCAEKEKTACVNGGECFMVKDLSNPSRYLCKCPNEFTGDRCQNYVMASFYKHLGIEFMEAEELY | 6.01

Problem: Requested field: pEC50. Item: Trx-HRG-β1 146-244 E195A fusion (soluble) (ligand) AYVSSESPIRISVSTEGANTSSSTSTSTTGTSHLVKCAEKEKTFCVNGGACFMVKDLSNPSRYLCKCPNEFTGDRCQNYVMASFYKHLGIEFMEAEELY
Solution: 7.38

Problem: Requested field: pEC50. Item: Trx-HRG-β1 146-244 H178A fusion (soluble) (ligand) AYVSSESPIRISVSTEGANTSSSTSTSTTGTSALVKCAEKEKTFCVNGGECFMVKDLSNPSRYLCKCPNEFTGDRCQNYVMASFYKHLGIEFMEAEELY
Solution: 6.32

Problem: Requested field: pEC50. Item: Trx-HRG-β1 146-244 G194A fusion (soluble) (ligand) AYVSSESPIRISVSTEGANTSSSTSTSTTGTSHLVKCAEKEKTFCVNGAECFMVKDLSNPSRYLCKCPNEFTGDRCQNYVMASFYKHLGIEFMEAEELY
Solution: 5.92

Where do the numbers come from? From patent US6387638.
